Target: Serine/threonine-protein kinase/endoribonuclease IRE1 (Homo sapiens)
Experiment: IRE-1alpha Assay: A fusion protein comprising glutathione S transferase (GST) and human IRE-1α (GST-IRE-1α) obtained from a 500 ml baculovirus-infected insect cell culture can be used to measure IRE-1α activity in vitro. Five μl of a reaction mixture comprising 1× reaction buffer (5× reaction buffer is 100 mM Hepes pH 7.5, 250 mM KOAc, 2.5 mM MgCl2), 3 mM DTT, and 0.4% polyethylene glycol water is added to each well of 384 well plates. Twenty-five nanoliters of a 1 mM test compound solution are added to test wells. Three μl of a 128 ng/ml IRE-1α preparation are added to each test well and to positive control wells (final concentration 5.82 ng/well). Negative control wells contain only reaction mixture and test compound. After spinning the plates at 1200 rpm for 30 seconds, 3 μl of an IRE-1α human mini-XBP-1 mRNA stem-loop substrate 5'-[…]-3' (SEQ ID NO:1), labeled with the fluorescent dye Cy5 at the 5' end and Black Hole Quencher 2 (BH2) at the 3' end, are added to each well of a control plate. The plates are again spun at 1200 rpm for 30 seconds. Final concentrations for the assay are: 63 nM IRE-1α substrate, 5.82 ng IRE-1α protein, and 2.5 μM test compound. The plates are covered with lids and incubated for one hour at 30° C. The plates are then transferred to an ACQUEST™ microplate reader. Data is analyzed using data analysis software, and the percent activity of IRE-1α is calculated.
pEC50: −log10 of the molar value.
Recorded pEC50 values for a group of compounds are listed next.

pEC50 measured on CCN(CC)CCc1c(C)c2ccc(O)c(C=O)c2oc1=O = < 5.00

pEC50 measured on Cc1c(Cc2ccccc2)c(=O)oc2c(C=O)c(O)c(O)cc12 = < 5.00

pEC50 measured on CC1CCN(C(=O)c2ccc(-c3nc4ccc(O)c(C=O)c4s3)cc2)CC1 = < 5.00

pEC50 measured on O=Cc1c(O)ccc2nc(-c3ccc(C(=O)O)cc3)[nH]c12 = < 5.00

pEC50 measured on O=Cc1c(O)ccc2nc(N3CCC(NC(=O)CN4CCOCC4)C3)ccc12 (configuration not stated) = > 5.00

pEC50 measured on CC(=O)NC1CCN(c2ccc3c(C=O)c(O)ccc3n2)C1 (configuration not stated) = > 5.00

pEC50 measured on Cc1c(-c2ccc(N3CCN(C)CC3)cc2)c(=O)oc2c(C=O)c(O)c(F)cc12 = > 5.00

pEC50 measured on O=Cc1c(O)ccc2nc(-c3ccc(C(=O)N4CCOCC4)cc3)[nH]c12 = < 5.00

###

Biological target: Serine/threonine-protein kinase/endoribonuclease IRE1 (Homo sapiens, UniProt O75460)
Sequence (O75460 whole entry, the tested form may be a part): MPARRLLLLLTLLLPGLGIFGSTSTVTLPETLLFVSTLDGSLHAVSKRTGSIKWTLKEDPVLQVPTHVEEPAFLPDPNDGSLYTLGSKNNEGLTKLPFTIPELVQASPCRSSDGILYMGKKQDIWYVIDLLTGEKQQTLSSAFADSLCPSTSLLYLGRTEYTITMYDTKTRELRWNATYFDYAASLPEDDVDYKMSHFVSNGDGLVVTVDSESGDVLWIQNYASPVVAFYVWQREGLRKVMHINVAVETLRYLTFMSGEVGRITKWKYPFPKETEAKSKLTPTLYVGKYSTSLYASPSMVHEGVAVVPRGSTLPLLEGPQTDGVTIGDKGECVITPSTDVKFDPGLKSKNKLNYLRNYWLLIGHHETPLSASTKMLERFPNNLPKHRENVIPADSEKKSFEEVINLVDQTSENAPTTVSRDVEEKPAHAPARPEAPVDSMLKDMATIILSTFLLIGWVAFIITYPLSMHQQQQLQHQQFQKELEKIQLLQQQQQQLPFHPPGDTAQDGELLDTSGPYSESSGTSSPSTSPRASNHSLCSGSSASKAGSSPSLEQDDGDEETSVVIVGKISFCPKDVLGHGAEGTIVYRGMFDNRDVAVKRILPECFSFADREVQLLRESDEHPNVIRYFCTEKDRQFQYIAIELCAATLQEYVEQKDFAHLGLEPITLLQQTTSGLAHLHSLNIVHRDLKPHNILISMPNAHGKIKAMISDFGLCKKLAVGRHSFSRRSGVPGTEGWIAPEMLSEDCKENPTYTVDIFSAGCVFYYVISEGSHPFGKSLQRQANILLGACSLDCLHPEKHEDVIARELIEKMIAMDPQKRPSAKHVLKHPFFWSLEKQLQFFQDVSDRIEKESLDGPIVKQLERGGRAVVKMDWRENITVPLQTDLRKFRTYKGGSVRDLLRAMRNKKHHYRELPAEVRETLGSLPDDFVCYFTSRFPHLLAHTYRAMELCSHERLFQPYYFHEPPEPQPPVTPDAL
Experiment: IRE-1alpha Assay: A fusion protein comprising glutathione S transferase (GST) and human IRE-1α (GST-IRE-1α) obtained from a 500 ml baculovirus-infected insect cell culture can be used to measure IRE-1α activity in vitro. Five μl of a reaction mixture comprising 1× reaction buffer (5× reaction buffer is 100 mM Hepes pH 7.5, 250 mM KOAc, 2.5 mM MgCl2), 3 mM DTT, and 0.4% polyethylene glycol water is added to each well of 384 well plates. Twenty-five nanoliters of a 1 mM test compound solution are added to test wells. Three μl of a 128 ng/ml IRE-1α preparation are added to each test well and to positive control wells (final concentration 5.82 ng/well). Negative control wells contain only reaction mixture and test compound. After spinning the plates at 1200 rpm for 30 seconds, 3 μl of an IRE-1α human mini-XBP-1 mRNA stem-loop substrate 5'-[…]-3' (SEQ ID NO:1), labeled with the fluorescent dye Cy5 at the 5' end and Black Hole Quencher 2 (BH2) at the 3' end, are added to each well of a control plate. The plates are again spun at 1200 rpm for 30 seconds. Final concentrations for the assay are: 63 nM IRE-1α substrate, 5.82 ng IRE-1α protein, and 2.5 μM test compound. The plates are covered with lids and incubated for one hour at 30° C. The plates are then transferred to an ACQUEST™ microplate reader. Data is analyzed using data analysis software, and the percent activity of IRE-1α is calculated.
Recorded EC50 values for a group of molecules are listed next.

• Cc1c(Br)c(=O)oc2c(C=O)c(O)ccc12 = < 10 µM
• COC(=O)c1ccc(-c2nc3ccc(O)c(C=O)c3[nH]2)cc1 = > 10 µM
• Cc1c(-c2ccc(C(=O)N3CCN(C)CC3)cc2)c(=O)oc2c(C=O)c(O)ccc12 = < 10 µM
• Cc1c(-c2cccc(C(=O)N3CCCC3)c2)c(=O)oc2c(C=O)c(O)ccc12 = > 10 µM
• O=Cc1c(O)ccc2nc(-c3cccc(C(=O)N4CCOCC4)c3)ccc12 = < 10 µM
• Cc1c(-c2ccc(C(=O)N3CCCC3)cc2)c(=O)oc2c(C=O)c(O)ccc12 = < 10 µM
• CN1CCN(C2CCN(c3nc4ccc(O)c(C=O)c4s3)C2)CC1 (stereo not drawn) = > 10 µM

Now for a further molecule.
EC50 measured on CN1CCN(C(=O)c2ccc(-c3nc4ccc(O)c(C=O)c4s3)s2)CC1 = > 10 µM
